- assayMethodText: gradient 5% acetonitrile 3 min, to 50% in 2 min, to 85% in 15 min, held 3 min, 100 µL/min
- conditionInfo: column: Zorbax Extend-C18 2.1 x 50 mm; eluents: water / acetonitrile, 0.1% formic acid
recordedMetric: RP-LC retention time (s)

Worked set:
CS(=O)(=O)Nc1cccc(OCc2nnc(-c3ccccc3)o2)c1    798
Cc1ccc(Cc2nc(-c3ccc(-n4ccnc4)nc3)no2)cc1    759
COc1ccc(N2CC(c3noc(-c4ccc(OC)c(F)c4)n3)CC2=O)cc1 (stereo not given)    856
O=C(NCc1cccs1)C1CCN(c2nnc3ccccn23)CC1    528
CCN1C(=O)c2cc(S(=O)(=O)Nc3ccc(F)cc3)ccc2Oc2cccnc21    957

a. CC(C)CN1CCn2cc(C(=O)NC(C)c3ccccc3)nc2C1 (stereo not given)
b. COc1ccc(-c2cc(C(=O)N3CCN(S(=O)(=O)c4ccc(C)cc4C)CC3)[nH]n2)cc1
In: Field: lower recorded RP-LC retention time (choose a or b ) # answer = label of selected item
Out: a

A. Cn1c(N2CCN(C(=O)c3ccccc3Cl)CC2)cc(=O)n(C)c1=O
B. O=C(CSc1cc(N2CCN(c3ccccc3F)CC2)ncn1)Nc1ccccc1F
In: Field: lower recorded RP-LC retention time (choose A or B ) # answer = label of selected item
Out: A
(A: 622 s, B: 1190 s)

----------
- assayMethodText: gradient 5% acetonitrile 3 min, to 50% in 2 min, to 85% in 15 min, held 3 min, 100 µL/min
- conditionInfo: column: Zorbax Extend-C18 2.1 x 50 mm; eluents: water / acetonitrile, 0.1% formic acid
recordedMetric: RP-LC retention time (s)

COc1ccc2c(c1)C1(CCN(C(=O)c3ccc(OC)c(OC)c3)C1)C(=O)N2C (stereo not given)    886
C/C=C(\C)C(=O)O[C@H]1CC[C@@]2(C)[C@@H]3CC[C@H]4[C@]5(O)C[C@H](O)[C@@]6(O)[C@@H](CN7C[C@@H](C)CC[C@H]7[C@@]6(C)O)[C@]5(O)C[C@@]42O[C@]13O    692
CCN1C(=O)CCc2cc(NC(=O)c3ccn(CC)n3)ccc21    701
O=C(Nc1cc(-c2ccccn2)no1)c1cccc(C(F)(F)F)c1    916
CC(C)NC(=O)c1ccc(OCC2CCN(C(=O)c3ccc(Cl)cc3)CC2)cc1    918

----------
- assayMethodText: gradient 5% acetonitrile 3 min, to 50% in 2 min, to 85% in 15 min, held 3 min, 100 µL/min
- conditionInfo: column: Zorbax Extend-C18 2.1 x 50 mm; eluents: water / acetonitrile, 0.1% formic acid
recordedMetric: RP-LC retention time (s)

N#Cc1cccc(NC(=O)N2CCCC2c2nc(-c3ccc(F)cc3F)no2)c1 (centres undefined)    930
O=C(Cn1cccc1-c1nnc(C2CCC2)o1)NCc1cccc(Br)c1    937
COc1cc([C@@H]2c3cc4c(cc3[C@H](O)[C@@H](CO)[C@@H]2C(=O)N2CCN(C(C)C)CC2)OCO4)cc(OC)c1OC    608
O=C(NCc1ccccc1)N1CCCC1c1nc(-c2ccccc2)n[nH]1 (centres undefined)    731

----------
- assayMethodText: gradient 5% acetonitrile 3 min, to 50% in 2 min, to 85% in 15 min, held 3 min, 100 µL/min
- conditionInfo: column: Zorbax Extend-C18 2.1 x 50 mm; eluents: water / acetonitrile, 0.1% formic acid
recordedMetric: RP-LC retention time (s)

Cc1nc(-c2csc(S(=O)(=O)N3CCCC(C(=O)Nc4ccc(F)cc4C)C3)c2)no1 (stereo not drawn)    892
Cc1cc(N2CCC(NC(=O)Nc3cccc(F)c3)C2=O)ccc1F (stereo not drawn)    882
Cc1cccc(CNC(=O)CCc2c(-c3ccc(Br)cc3)nc3ccccn23)c1    718
